- System: Mus musculus
- PROTOCOL DETAILS: Anticonvulsant activity in Swiss albino Mus musculus (mouse) assessed as protection against maximal electric shock-induced tonic-clonic seizures at 100 mg/kg, ip measured at 0.5 hr
- Format: functional, organism-based
- Parameters: dose 100 mg/kg
Calls of active or inactive are those of the source. The rule behind the calls is not given here.
Labels: active, inactive

SMILES RECORD: O=C(CNC(=O)c1ccccc1Cl)Nc1ccccc1
ASSIGNED CLASS: inactive
//
SMILES RECORD: Cc1cccc(C)c1NC(=O)CNC(=O)c1ccccc1
ASSIGNED CLASS: inactive
//
SMILES RECORD: Cc1ccc(C(=O)NCC(=O)Nc2ccccc2)cc1
ASSIGNED CLASS: inactive
//
SMILES RECORD: Cc1ccccc1NC(=O)CNC(=O)c1ccccc1
ASSIGNED CLASS: inactive
//
SMILES RECORD: CC(C)c1ccccc1NC(=O)CNC(=O)c1ccccc1
ASSIGNED CLASS: inactive
//
SMILES RECORD: COc1ccccc1NC(=O)CNC(=O)c1ccccc1
ASSIGNED CLASS: inactive
//
SMILES RECORD: O=C(CNC(=O)c1ccc([N+](=O)[O-])cc1)Nc1ccccc1
ASSIGNED CLASS: inactive
//
SMILES RECORD: O=C(CNC(=O)c1ccccc1)Nc1ccccc1Cl
ASSIGNED CLASS: inactive
//
SMILES RECORD: COc1ccc(NC(=O)CNC(=O)c2ccccc2)cc1
ASSIGNED CLASS: active
//
SMILES RECORD: CCc1ccccc1NC(=O)CNC(=O)c1ccccc1
ASSIGNED CLASS: inactive
//
SMILES RECORD: O=C(CNC(=O)c1ccccc1)Nc1ccccc1
ASSIGNED CLASS: inactive
